In this section we review reported RAC app values for a set of compounds.
Target under test: Estrogen receptor (Ovis aries) (UniProt P49885+Q9TU15)
Just the number.

Some entries whose results are on file:
[[record]]
compound = "C[C@]12CC[C@@H]3c4ccc(O)cc4CC[C@H]3[C@@H]1CC[C@@]2(O)CCCO"
endpoint_value = 0.024

[[record]]
compound = "C[C@]12CC[C@@H]3c4ccc(O)cc4CC[C@H]3[C@@H]1CC[C@@]2(O)C#CCCCCCCO"
endpoint_value = 0.4

[[record]]
compound = "C[C@]12CC[C@@H]3c4ccc(O)cc4CC[C@H]3[C@@H]1CC[C@@]2(O)C#CCCCCCCOC(=O)CBr"
endpoint_value = 0.24


Query: Form field: reported RAC app of C[C@]12CC[C@@H]3c4ccc(O)cc4CC[C@H]3[C@@H]1CC[C@@]2(O)CC1CO1 (stereo in doubt; 6a)
Result: 0.044

Query: Form field: reported RAC app of "C[C@]12CC[C@@H]3c4ccc(O)cc4CC[C@H]3[C@@H]1CC[C@@]2(O)C#CCCOC(=O)CBr"
Result: 0.066

Query: Form field: reported RAC app of "C[C@]12CC[C@@H]3c4ccc(O)cc4CC[C@H]3[C@@H]1CC[C@@]2(O)C#CCCO"
Result: 0.07

Query: Form field: reported RAC app of "C[C@]12CC[C@@H]3c4ccc(O)cc4CC[C@H]3[C@@H]1CC[C@@]2(O)CCCOC(=O)CBr"
Result: 0.021

----------
Hi! I'm sharing some RAC app results obtained with Estrogen receptor (Ovis aries) (UniProt P49885+Q9TU15).
Just the number.

[[record]]
compound = "C[C@]12CC[C@@H]3c4ccc(O)cc4CC[C@H]3[C@@H]1CC[C@@]2(O)CCCOC(=O)CBr"
recorded_endpoint = "RAC app"
endpoint_value = 0.21

[[record]]
compound = "C[C@]12CC[C@@H]3c4ccc(O)cc4CC[C@H]3[C@@H]1CC[C@@]2(O)C#CCCO"
recorded_endpoint = "RAC app"
endpoint_value = 1

[[record]]
compound = "C[C@]12CC[C@@H]3c4ccc(O)cc4CC[C@H]3[C@@H]1CC[C@@]2(O)C#CCCOC(=O)CBr"
recorded_endpoint = "RAC app"
endpoint_value = 0.79


Query: For the record C[C@]12CC[C@@H]3c4ccc(O)cc4CC[C@H]3[C@@H]1CC[C@@]2(O)CC1CO1 (stereo in doubt; 6a) , what value of RAC app is listed for Estrogen receptor (Ovis aries) (UniProt P49885+Q9TU15)?
Result: 1.3

----------
Target under test: Estrogen receptor (Ovis aries) (UniProt P49885+Q9TU15)
Recorded endpoint: RAC app
Just the number.

Some entries whose results are on file:
[[record]]
molecule = "C[C@]12CC[C@@H]3c4ccc(O)cc4CC[C@H]3[C@@H]1CC[C@@]2(O)CCCO"
target_under_test = "Estrogen receptor (Ovis aries) (UniProt P49885+Q9TU15)"
endpoint_value = 0.28

[[record]]
molecule = "C[C@]12CC[C@@H]3c4ccc(O)cc4CC[C@H]3[C@@H]1CC[C@@]2(O)C#CCCCCCCOC(=O)CBr"
target_under_test = "Estrogen receptor (Ovis aries) (UniProt P49885+Q9TU15)"
endpoint_value = 1.5

[[record]]
molecule = "C[C@]12CC[C@@H]3c4ccc(O)cc4CC[C@H]3[C@@H]1CC[C@@]2(O)CC1CO1 (stereo in doubt; 6b)"
target_under_test = "Estrogen receptor (Ovis aries) (UniProt P49885+Q9TU15)"
endpoint_value = 0.2


// next entry
Query: For the record "C[C@]12CC[C@@H]3c4ccc(O)cc4CC[C@H]3[C@@H]1CC[C@@]2(O)C#CCCCCCCO" , what value of RAC app is listed for Estrogen receptor (Ovis aries) (UniProt P49885+Q9TU15)?
Result: 3.4
